Overview of recorded Percent Effect for various molecules
Target: AMP-activated protein kinase, AMPK (Homo sapiens) (UniProt P54646+O43741+P54619+Q9UGJ0+Q9Y478+Q13131+Q9UGI9)
Experiment: AMP-dependent Kinase enzyme assay. An in vitro enzyme assay that detects ADP turnover that is directly proportional to AMPK activity. This uses naive AMPK that is activated during the assay with MK-8722
Type: functional
Design: scale not given: direction of the effect not stated beside the values
Details: 30 µM

MOLECULE: COc1cccc(S(=O)(=O)NC(=O)COc2c(C)cccc2C)c1
UNIT_OF_MEASUREMENT: %
Percent Effect: -10.1

MOLECULE: COCCN(Cc1ccoc1)C(=O)c1ccccc1Cl
UNIT_OF_MEASUREMENT: %
Percent Effect: 0.957

MOLECULE: O=C(c1ccsc1)N1C[C@@H](CN2CCCC2)[C@@H](CO)C1
UNIT_OF_MEASUREMENT: %
Percent Effect: -3.05

MOLECULE: Cc1cnn(CC2CCCN2C(=O)c2nccc3ccccc23)c1 (stereo unspecified)
UNIT_OF_MEASUREMENT: %
Percent Effect: 4.54

MOLECULE: COc1nn(C)c2c1CCCN(C(=O)c1ccccc1)C2
UNIT_OF_MEASUREMENT: %
Percent Effect: -0.442

MOLECULE: Cc1ccc(NC2CCN(C(=O)CCc3ccco3)CC2)nn1
UNIT_OF_MEASUREMENT: %
Percent Effect: 6.46

----------
Overview of recorded Percent Effect for various compounds
Biological target: Chromo domain-containing protein 1 (Saccharomyces cerevisiae (strain ATCC 204508 / S288c) (Baker's yeast))
Experiment: ScCHD-1 Enzyme Inhibition Assay; further: in the data most compounds retested in dose-response had high values
Type: functional
Parameters: scale not given: direction of the effect not stated beside the values
Details: 30 µM
REPORTED_METRIC: Percent Effect

COMPOUND: CCn1cc(CN2CCCC(CO)(CCc3ccccc3)C2)c(C)n1 (stereo unspecified)
REPORTED_METRIC: Percent Effect
EXPERIMENTAL_VALUE: -12.5%
--
COMPOUND: Cc1nc(C)n(C2CCCN(C(=O)c3ccc(N(C)C)nn3)C2)n1 (stereo unspecified)
REPORTED_METRIC: Percent Effect
EXPERIMENTAL_VALUE: -16.9%
--
COMPOUND: CC(C)(C)c1cnc(CN2CCCC2Cn2cccn2)o1 (stereo unspecified)
REPORTED_METRIC: Percent Effect
EXPERIMENTAL_VALUE: -4.77%
--
COMPOUND: COCc1nc(N(C)C)ncc1C(=O)Nc1ccn(C)n1
REPORTED_METRIC: Percent Effect
EXPERIMENTAL_VALUE: -10.2%
--
COMPOUND: Cc1nnc(N2CCC(CS(N)(=O)=O)CC2)c(C#N)c1C
REPORTED_METRIC: Percent Effect
EXPERIMENTAL_VALUE: -16.6%
--
COMPOUND: O=C(CSC1=NS(=O)(=O)c2cc(F)ccc2N1)c1ccc(Cl)cc1
REPORTED_METRIC: Percent Effect
EXPERIMENTAL_VALUE: -7.8%
--
COMPOUND: Cc1nc(CN2CCN(CC(=O)Nc3c(C)cccc3C)CC2)no1
REPORTED_METRIC: Percent Effect
EXPERIMENTAL_VALUE: -17.5%
--
COMPOUND: CC(C)(C)c1cnc(CN2CCC[C@H]2CO)o1
REPORTED_METRIC: Percent Effect
EXPERIMENTAL_VALUE: -5.64%
--
COMPOUND: CCN(CCNC(=O)c1ccccc1Br)C1CC1
REPORTED_METRIC: Percent Effect
EXPERIMENTAL_VALUE: -18%
--
COMPOUND: CC(C)(CNC(=O)CCOc1cccc(F)c1)C(N)=O
REPORTED_METRIC: Percent Effect
EXPERIMENTAL_VALUE: -1.57%
--
COMPOUND: CCN1CC2(CC1=O)CN(C(=O)c1ccco1)CCN(C(=O)N(C)C)C2 (stereo unspecified)
REPORTED_METRIC: Percent Effect
EXPERIMENTAL_VALUE: -1.51%
--
COMPOUND: CC(NCc1cccnc1)c1ccc(OCC(=O)NC2CC2)cc1 (stereo unspecified)
REPORTED_METRIC: Percent Effect
EXPERIMENTAL_VALUE: 4.29%
--
COMPOUND: O=C(COCc1ccccc1)N1CCCC(n2cncn2)C1 (stereo unspecified)
REPORTED_METRIC: Percent Effect
EXPERIMENTAL_VALUE: -4.59%
--
COMPOUND: COc1cccc(CN2CCC(c3cc(O)nc(C)n3)C2)c1 (stereo unspecified)
REPORTED_METRIC: Percent Effect
EXPERIMENTAL_VALUE: -5.62%
--
COMPOUND: Cc1cnn(CC2CCCN2Cc2cc(=O)n3cccc(C)c3n2)c1 (stereo unspecified)
REPORTED_METRIC: Percent Effect
EXPERIMENTAL_VALUE: -5.16%
--
COMPOUND: O=C(CCc1cscn1)NS(=O)(=O)c1ccc2ccccc2c1
REPORTED_METRIC: Percent Effect
EXPERIMENTAL_VALUE: -4.15%

----------
Overview of recorded Percent Effect for various compounds
Target: Arginase-2, mitochondrial (Homo sapiens) (UniProt P78540)
Sequence (P78540 whole entry): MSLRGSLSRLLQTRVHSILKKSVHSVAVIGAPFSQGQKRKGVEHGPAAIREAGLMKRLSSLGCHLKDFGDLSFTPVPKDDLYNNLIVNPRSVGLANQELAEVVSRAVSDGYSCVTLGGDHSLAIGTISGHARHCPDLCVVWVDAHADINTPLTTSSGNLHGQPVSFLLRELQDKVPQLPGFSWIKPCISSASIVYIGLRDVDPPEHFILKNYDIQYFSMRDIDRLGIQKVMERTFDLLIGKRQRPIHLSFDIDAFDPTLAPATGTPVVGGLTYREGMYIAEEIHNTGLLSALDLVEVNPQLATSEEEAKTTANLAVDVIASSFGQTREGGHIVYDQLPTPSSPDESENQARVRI
Assay: in vitro enzyme assay to detect the production of urea directly proportional to the activity of Arginase II; further: in the data most compounds retested in dose-response had high values
Format: functional
Design: scale not given: direction of the effect not stated beside the values
Conditions: 33.3 µM

COMPOUND: Cc1nc(C)n(CC2CCCN2Cc2nc(-c3cccs3)no2)n1 (stereo unspecified)
Percent Effect (%): 2.3
--
COMPOUND: Cc1cc(N2CCN(Cc3ccc(-c4cc[nH]n4)o3)CC2)cc(C)n1
Percent Effect (%): 10.9
--
COMPOUND: Cc1noc(C)c1CNc1cc(N2CCCC2CO)ncn1 (stereo unspecified)
Percent Effect (%): 1.5
--
COMPOUND: O=C(NCCOc1ncc(Cl)cc1Cl)c1ccncc1
Percent Effect (%): -1.67
--
COMPOUND: O=C(NCCCn1cccn1)C1(c2ccc(Br)cc2)CC1
Percent Effect (%): 2.73
--
COMPOUND: Cc1nc(C2CCCN2Cc2nc(C)c(C)o2)no1 (stereo unspecified)
Percent Effect (%): 1.29
--
COMPOUND: CC(C)OCCCNC(=O)c1ccc(-c2ccco2)[nH]c1=O
Percent Effect (%): -1.6
--
COMPOUND: CN1N=C(C(=O)N2CCCC(CCc3c(F)cccc3F)C2)CCC1=O (stereo unspecified)
Percent Effect (%): 0
--
COMPOUND: CC(=O)N1CCN(CC2CCOc3ccccc3C2)CC1 (stereo unspecified)
Percent Effect (%): 0.883
--
COMPOUND: COc1ccc(C(=O)NCCc2nnc3ccccn23)c(OC)c1
Percent Effect (%): -3.16
--
COMPOUND: CCOc1ccc(S(=O)(=O)NCc2cccnc2N(C)C)cc1
Percent Effect (%): -5.7
--
COMPOUND: CC(C)Nc1nc(N2CCOCC2)nc2c1CN(CC(=O)N(C)C)CC2
Percent Effect (%): 1.17
--
COMPOUND: COc1ccc(NC(=O)C2CCOC2)c(N2CCN(C(C)=O)CC2)n1 (stereo unspecified)
Percent Effect (%): 2.5
--
COMPOUND: CC(C)n1cc(CN2CCCN(C(=O)c3cc(Cl)c[nH]3)CC2)cn1
Percent Effect (%): -4.41
--
COMPOUND: CCC(=O)N1CCc2[nH]cnc2C12CCN(C(=O)CCS(C)(=O)=O)CC2
Percent Effect (%): 23.4
--
COMPOUND: Cc1cc(C(=O)N2CCN(C(=O)Cc3ccccn3)CC2)c(C)s1
Percent Effect (%): -11
--
COMPOUND: CC(C)C1CN(C(=O)c2nccnc2N)CCS1 (stereo unspecified)
Percent Effect (%): -92.4
--
COMPOUND: Cn1cc(N2CCC(NC(=O)c3c(F)cccc3F)C2=O)cn1 (stereo unspecified)
Percent Effect (%): -0.744
--
COMPOUND: O=C(Nc1nccs1)N1CCCC(N2CCNC2=O)C1 (stereo unspecified)
Percent Effect (%): 17.3
--
COMPOUND: CSC(C)(C)CNC(=O)NCCC1CCN(C)CC1
Percent Effect (%): -1.56
--
COMPOUND: O=C(NCC1CCOC1)c1csc(-c2ccco2)n1 (stereo unspecified)
Percent Effect (%): -1.07
--
COMPOUND: N#Cc1ccnc(N2CCN(C(=O)NC3CCS(=O)(=O)C3)CC2)c1 (stereo unspecified)
Percent Effect (%): -0.185
--
COMPOUND: COC(=O)c1cccn1C1CCN(C(=O)c2cc(F)ccc2F)CC1
Percent Effect (%): -6.76
--
COMPOUND: O=C(NCCc1ccccn1)NC1CCN(c2ncccn2)CC1
Percent Effect (%): 2
--
COMPOUND: COc1ccc(NC(=O)CNc2ccc(Br)cc2F)cc1
Percent Effect (%): 0
--
COMPOUND: O=C(c1ccco1)N1CC[C@H]2[C@H]1CCN2CC1CCOCC1
Percent Effect (%): 1.17
--
COMPOUND: Cc1ccc(N2CC3(COCCN(Cc4cccnc4)C3)OCC2=O)s1 (stereo unspecified)
Percent Effect (%): 0.645
--
COMPOUND: CCn1cc2c(n1)CN(Cc1nccs1)CC2COCC1CC1 (stereo unspecified)
Percent Effect (%): 3.03
--
COMPOUND: O=C(NCCN1CCCCCC1=O)c1n[nH]c(=O)c2ccccc12
Percent Effect (%): 2.13
--
COMPOUND: CC(NC(=O)NCCCn1cccn1)c1ccc2c(c1)NC(=O)CO2 (stereo unspecified)
Percent Effect (%): -3.42
--
COMPOUND: O=c1oc(-c2cccs2)nn1CC(O)c1ccc(F)cc1 (stereo unspecified)
Percent Effect (%): -1.04
--
COMPOUND: COCCN1C[C@@H]2CCCO[C@@H]2[C@H](N(C)Cc2ccco2)C1
Percent Effect (%): 50.6
--
COMPOUND: Cn1cc(CN2CCC(F)(F)C3(CCN(c4cnccn4)C3)C2)cn1 (stereo unspecified)
Percent Effect (%): 4.17
--
COMPOUND: CCC(O)CNC(=O)C1(N(C)Cc2ccccc2)Cc2ccccc2C1 (stereo unspecified)
Percent Effect (%): 3.12
--
COMPOUND: CC(=O)N1CCC(Oc2ccc(C#N)cn2)CC1
Percent Effect (%): 7.27
--
COMPOUND: CC(C)NC(=O)NCCCc1cc(N)n(-c2ccccc2)n1
Percent Effect (%): -6.82
--
COMPOUND: CC1CCCCN1CCNC(=O)c1ccn(-c2ccc(F)cc2)n1 (stereo unspecified)
Percent Effect (%): -16
--
COMPOUND: Cc1csc(C2CCCN(C(=O)c3cc(Cl)c[nH]3)C2)n1 (stereo unspecified)
Percent Effect (%): -2
--
COMPOUND: CN1CCN(Cc2cn3c(n2)CN(Cc2cccnc2)CC3)CC1
Percent Effect (%): 2.23
--
COMPOUND: COC(=O)c1cc(OCC2CCC2)cc(C(=O)N[C@@H]2CNCC[C@H]2O)c1
Percent Effect (%): -2.73
--
COMPOUND: NC(=O)c1nnn(-c2ccc(Br)cc2)n1
Percent Effect (%): 3.23
--
COMPOUND: Cc1oc(C)c(C(=O)N2CCCN(Cc3cscn3)CC2)c1C
Percent Effect (%): -2.32
--
COMPOUND: CN(Cc1ccco1)Cc1ccccc1CNC(=O)c1cc[nH]n1
Percent Effect (%): 0.952
--
COMPOUND: CC(=O)N1CCCN(C(=O)NCCc2ccc(Cl)s2)CC1
Percent Effect (%): -4.95
--
COMPOUND: O=C(CCC1CCCO1)NS(=O)(=O)c1ccc(Cl)cc1 (stereo unspecified)
Percent Effect (%): -2
--
COMPOUND: Cc1ncc2c(n1)CCCC2NC(=O)c1ccncc1 (stereo unspecified)
Percent Effect (%): -1.38
